# measured-target: T1, hK1 (human tissue kallikrein 1), recombinant (human, UniProt P06870 25-262)
# T1 construct: Expressed in P. pastoris from KLK1 cDNA and purified; enzymatically active; also called KLK1; Recombinant (Pichia) Kallikrein
# protocol-summary: SPR
value-kind: kon (M⁻¹ s⁻¹)
Express it in M⁻¹ s⁻¹; write the number only.

binder: M0093-G09 (Fab, V domains shown) VH: EVQLLESGGGLVQPGGSLRLSCAASGFTFSWYSMTWVRQAPGKGLEWVSSISPSGGATKYADSVKGRFTISRDNSKNTLYLQMNSLRAEDTAVYYCARGGAASLPFDYWGQGTLVTVSS VL: DIQMTQSPSSLSASVGDRVTITCRASQSISSFLNWYQQKPGKAPKLLLMYAASSLQSGVPSRFSGSGSGTDFTLTISSLQPEDFATYYCQQSYSTPYTFGQGTKLEIKR
observed-value: 458000

// returns reported kon for input M0095-A11 (Fab, V domains shown) VH: EVQLLESGGGLVQPGGSLRLSCAASGFTFSPYMMGWVRQAPGKGLEWVSSIRSSGGATAYADSVKGRFTISRDNSKNTLYLQMNSLRAEDTATYYCARVGVWYGMDVWGQGTTVTVSS VL: DIQMTQSPATLSLSPGERATLSCRASQSVSSYLAWYQQKPGQAPRLLIYDASNRATGIPARFSGSGSGTDFTLTISSLEPEDFAVYYCQQRSNWPPYTFGQGTKLEIKR
525000
